molecular target: 5-aminolevulinate synthase (cALAS) (Caulobacter vibrioides, UniProt Q9A8J8, C398A/H340A); construct: recombinant cALAS H340A/C398A, PLP form; experiment: apparent Kd from spectrophotometric titration; settings: read-out: KdGly,app /
Sequence (Q9A8J8 1-408 H340A/C398A): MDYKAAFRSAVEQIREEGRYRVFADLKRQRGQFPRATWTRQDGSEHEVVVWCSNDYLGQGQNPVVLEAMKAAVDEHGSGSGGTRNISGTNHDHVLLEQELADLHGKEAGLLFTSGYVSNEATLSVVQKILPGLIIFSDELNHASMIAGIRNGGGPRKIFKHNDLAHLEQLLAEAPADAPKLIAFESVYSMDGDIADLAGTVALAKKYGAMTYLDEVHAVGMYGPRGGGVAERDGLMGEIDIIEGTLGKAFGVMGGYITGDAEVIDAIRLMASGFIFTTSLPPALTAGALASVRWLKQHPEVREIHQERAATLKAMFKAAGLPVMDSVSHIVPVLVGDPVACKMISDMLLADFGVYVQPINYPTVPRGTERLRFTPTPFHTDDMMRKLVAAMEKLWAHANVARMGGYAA
reported_endpoint: pKd
The scale used: pKd is minus the common logarithm of the concentration in molar units.

Prompt line: Return pKd (reported value) for this compound: NCC(=O)O [glycine]
Response line: 2.19

----------
molecular target: 5-aminolevulinate synthase (cALAS) (Caulobacter vibrioides, UniProt Q9A8J8, H340A); construct: gene CC_1355; recombinant cALAS H340A, PLP form; test: apparent Kd from spectrophotometric titration; type: binding; conditions: read-out: KdGly,app /
Sequence (Q9A8J8 1-408 H340A): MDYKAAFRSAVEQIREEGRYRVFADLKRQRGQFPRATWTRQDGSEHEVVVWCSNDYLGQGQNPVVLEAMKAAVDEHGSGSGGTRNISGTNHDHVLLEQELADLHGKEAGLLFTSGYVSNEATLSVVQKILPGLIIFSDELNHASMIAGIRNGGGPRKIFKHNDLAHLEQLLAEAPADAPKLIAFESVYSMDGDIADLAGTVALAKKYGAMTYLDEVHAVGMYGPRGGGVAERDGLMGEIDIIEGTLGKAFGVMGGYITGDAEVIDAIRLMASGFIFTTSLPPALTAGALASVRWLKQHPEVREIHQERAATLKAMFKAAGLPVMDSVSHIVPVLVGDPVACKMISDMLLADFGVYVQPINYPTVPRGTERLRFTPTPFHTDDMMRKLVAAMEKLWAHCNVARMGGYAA
reported_endpoint: pKd
The scale used: pKd is minus the common logarithm of the concentration in molar units.

Prompt line: Return pKd (reported value) for this compound: `NCC(=O)O`
Response line: 1.94
